Origin of the recorded values: patent US20240059704A1

- Test system: T47D cell line
- Test Protocol: Cell growth inhibition in T47D cell line
- Format: cell-based
- Condition Context: Homo sapiens, μM, class key in nM
Readout: IC50

O=C1CCC(N2Cc3c(ccc4c3OCC3(CN(CC5CCN(c6ccc([C@@H]7c8ccc(O)cc8CC[C@@H]7c7ccccc7)cc6)CC5)C3)O4)C2=O)C(=O)N1 (stereo partly drawn) [THP-B367] | 0.001 to 0.01 µM
O=C1CC[C@H](N2Cc3c(ccc4c3OCC3(CCN(CC5CCN(c6ccc([C@@H]7c8ccc(O)cc8CC[C@@H]7c7ccccc7)cc6)CC5)CC3)O4)C2=O)C(=O)N1 [THP-B369] | < 0.001 µM

Could you now look at the following compound, please?
Record O=C1CC[C@H](N2Cc3c(ccc4c3OCC3(CCN(CC5COC6(CCN(c7ccc([C@@H]8c9ccc(O)cc9CC[C@@H]8c8ccccc8)cc7)CC6)OC5)CC3)O4)C2=O)C(=O)N1 [THP-B374] has T47D cell line IC50 equal to < 0.001 µM
